System: U-2 OS
Assay: relative cell count vs DMSO (cell painting) (fraction of DMSO control); higher = more cells remaining (less cytotoxic)
Details: 1.25 µM; 24 h
Test readout: relative cell count
// no unit, no text: just the number

Exercise: Endpoint output: relative cell count of O=C(O)C[C@@H]1C(=O)O[C@H]2[C@@H]3OC(=O)c4cc(O)c(O)c(O)c4-c4c(cc(O)c(O)c4O)C(=O)OC[C@H]2O[C@@H](OC(=O)c2cc(O)c(O)c(O)c2)[C@@H]3OC(=O)c2cc(O)c(O)c3c2[C@H]1[C@H](O)C(=O)O3 . Value?
Solution: 1

Exercise: Endpoint output: relative cell count of C[C@H]1O[C@@H](O[C@H]2CC[C@@]3(C)[C@@H](CC[C@]4(C)[C@@H]3C=C[C@]35OC[C@@]6(CCC(C)(C)C[C@H]63)[C@@H](O)C[C@]54C)[C@]2(C)CO)[C@H](O)[C@@H](O[C@@H]2O[C@H](CO)[C@@H](O)[C@H](O)[C@H]2O)[C@H]1O . Value?
Solution: 0.765

Exercise: Endpoint output: relative cell count of O=C(O)C1(C(=O)O)CCC1.[NH2-].[NH2-].[Pt+2] . Value?
Solution: 0.853

Exercise: Endpoint output: relative cell count of CN1CCN(CCOc2cc(OC3CCOCC3)c3c(Nc4c(Cl)ccc5c4OCO5)ncnc3c2)CC1 . Value?
Solution: 0.953

Exercise: Endpoint output: relative cell count of Cc1ccc(C(=O)N(CCCN)[C@@H](c2nc3cc(Cl)ccc3c(=O)n2Cc2ccccc2)C(C)C)cc1 . Value?
Solution: 0.209

Exercise: Endpoint output: relative cell count of O=c1c(O)c(-c2ccc(O)c(O)c2)oc2cc(O)ccc12 . Value?
Solution: 0.938

Exercise: Endpoint output: relative cell count of C=CC(=O)N1CCC[C@@H](n2nc(-c3ccc(Oc4ccccc4)cc3)c3c(N)ncnc32)C1 . Value?
Solution: 1.02

----------
Tested on: U-2 OS
Assay: cell painting activity score (Mahalanobis distance from DMSO wells); higher = stronger morphological phenotype
Conditions: 2.5 µM; 24 h
Test readout: cell painting activity score

Exercise: Endpoint output: cell painting activity score of C[C@]12O[C@H](C[C@]1(O)CO)n1c3ccccc3c3c4c(c5c6ccccc6n2c5c31)CNC4=O . Value?
Solution: 22.3

Exercise: Endpoint output: cell painting activity score of C[C@@H]1CC[C@@]2(OC1)O[C@H]1[C@@H](O)[C@H]3[C@@H]4CC[C@H]5C[C@@H](O[C@@H]6O[C@H](CO)[C@H](O[C@@H]7O[C@H](CO)[C@@H](O)[C@H](O[C@@H]8OC[C@@H](O)[C@H](O)[C@H]8O)[C@H]7O[C@@H]7O[C@H](CO)[C@H](O)[C@H](O[C@@H]8O[C@H](CO)[C@@H](O)[C@H](O)[C@H]8O)[C@H]7O)[C@H](O)[C@H]6O)[C@H](O)C[C@]5(C)[C@H]4CC[C@]3(C)[C@H]1[C@@H]2C . Value?
Solution: 7.71

Exercise: Endpoint output: cell painting activity score of O=[N+]([O-])c1cc(Br)c2nsnc2c1Sc1ncnc2nc[nH]c12 . Value?
Solution: 7.08

Exercise: Endpoint output: cell painting activity score of CCCCCCCCCCCCCCCc1cccc(O)c1C(=O)O . Value?
Solution: 3.54

Exercise: Endpoint output: cell painting activity score of C#CC[C@H](c1nc2cc(Cl)ccc2c(=O)n1Nc1ccccc1)N(CCCN)C(=O)c1cccc(Cl)c1F . Value?
Solution: 4.15

FYI, the data here is from the supplement of paper PMC10011410.
